Test Target: Prostaglandin G/H synthase 2 (Homo sapiens)
Sequence (P35354 whole entry): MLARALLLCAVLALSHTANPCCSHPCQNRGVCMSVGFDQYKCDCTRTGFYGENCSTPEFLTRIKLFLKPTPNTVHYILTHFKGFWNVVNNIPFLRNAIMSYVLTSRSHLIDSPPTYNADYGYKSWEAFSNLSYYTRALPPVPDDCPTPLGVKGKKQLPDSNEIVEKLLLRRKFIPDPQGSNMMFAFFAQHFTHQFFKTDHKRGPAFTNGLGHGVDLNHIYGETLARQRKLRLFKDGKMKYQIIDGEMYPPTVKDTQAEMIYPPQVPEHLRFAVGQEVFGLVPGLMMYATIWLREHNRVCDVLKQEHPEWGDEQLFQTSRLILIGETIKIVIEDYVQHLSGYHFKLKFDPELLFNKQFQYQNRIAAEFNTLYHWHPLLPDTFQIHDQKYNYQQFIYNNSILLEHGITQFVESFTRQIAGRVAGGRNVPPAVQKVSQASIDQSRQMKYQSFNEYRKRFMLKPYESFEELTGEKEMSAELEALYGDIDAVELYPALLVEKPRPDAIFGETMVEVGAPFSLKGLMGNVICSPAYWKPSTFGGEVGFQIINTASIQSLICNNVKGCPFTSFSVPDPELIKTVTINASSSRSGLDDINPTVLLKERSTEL
Method Notes: Inhibition of human recombinant COX2 assessed as PGE2 production after 10 mins by ELISA
Provide the reported IC50 of each item.
Report field: quantity (unit follows the number).

O=S(=O)([O-])Oc1ccc(/C=C/c2cc(O)cc(O)c2)cc1.[K+]; 8.95 µM

Moving on to the next molecule.
Find the measured IC50: item `O=S(=O)([O-])Oc1cc(O)cc(/C=C/c2ccc(O)cc2)c1.[K+]` , target or system Prostaglandin G/H synthase 2 (Homo sapiens).
7.53 µM

* * *

Method Notes: Antioxidant activity assessed as nitric oxide scavenging activity at 60 uM
Type: functional
The label depends only on Activity: label 1 if it is at least 10%, label 0 if it is smaller.

Field: example entries. Status: answers known.
O=S(=O)([O-])Oc1ccc(/C=C/c2cc(O)cc(OS(=O)(=O)[O-])c2)cc1.[K+].[K+]; label 0
O=S(=O)([O-])Oc1cc(/C=C/c2ccc(O)cc2)cc(OS(=O)(=O)[O-])c1.[K+].[K+]; label 0
O=S(=O)([O-])Oc1ccc(/C=C/c2cc(O)cc(O)c2)cc1.[K+]; label 1
O=S(=O)([O-])Oc1cc(O)cc(/C=C/c2ccc(O)cc2)c1.[K+]; label 1

Continue with the molecule presented below.
Form field: Activity at least 10%? Entry: `O=S(=O)([O-])Oc1ccc(/C=C/c2cc(OS(=O)(=O)[O-])cc(OS(=O)(=O)[O-])c2)cc1.[K+].[K+].[K+]`
label 0
